# Tested on: HCT-116 colon
# MEASUREMENT DESCRIPTION: NCI-60 one-dose screen, 48 h
# CONDITION LABEL: 10 µM unless noted
About 83,000 compounds went through this panel and 20% of them were active in at least one assay; those are over-represented in the sample as a whole. The source made the active and inactive calls. Rule for the calls: active = growth percent below 10; inactive = the rest.
Hi! Could you answer with just one of these? yes (1) (active), no (0) (inactive)

Q: Which outcome was assigned to COc1ccc(Oc2nc(Nc3ccc(N4CCOCC4)cc3)ncc2NC(=O)c2cc(OC)cc(OC)c2)cc1 in this test?
Ans: no (0)

Q: Which outcome was assigned to C=CCOc1ccc(/C=C2\SC(=S)N(CCc3ccc(O)cc3)C2=O)cc1 in this test?
Ans: no (0)

Q: Which outcome was assigned to COc1ccc(C/C(C)=C(/c2ccc(OCCN3CCCCCC3)cc2)c2ccc(OC(=O)c3ccccc3)cc2)cc1 in this test?
Ans: no (0)

Q: Which outcome was assigned to CCn1cc(C(=O)NN=C2CCCC2)c(=O)c2ccc(C)nc21 in this test?
Ans: no (0)

Q: Which outcome was assigned to O=C(Nc1ncc(Cc2cccc(C(F)(F)F)c2)s1)c1ccc2c(c1)OCCO2 in this test?
Ans: no (0)

Q: Which outcome was assigned to O=C1/C(=C/c2ccccc2)CN(C(=O)C(Cl)Cl)C/C1=C\c1ccccc1 in this test?
Ans: yes (1)

Q: Which outcome was assigned to OCCN1CCN(c2cc(-c3cccc(OC(F)(F)F)c3)nc3ccc(N4CCCC4)cc23)CC1 in this test?
Ans: no (0)

Q: Which outcome was assigned to N#CSc1c[nH]c2ccc(/C=C/C(=O)/C=C(/C=C/c3ccc4[nH]cc(SC#N)c4c3)OB(F)F)cc12 in this test?
Ans: yes (1)

Q: Which outcome was assigned to Cc1ccc(-c2nc3nc(-c4ccc(Br)cc4)nc(N4CCCNCC4)c3o2)cc1 in this test?
Ans: yes (1)

Q: Which outcome was assigned to O=C(Nc1ccc2ccccc2c1)c1cc2ccccc2cc1O in this test?
Ans: no (0)

Q: Which outcome was assigned to C=C(C)[C@@H]1CC[C@]2(C(=O)N3CCN(C)CC3)CC[C@]3(C)[C@H](CC[C@@H]4[C@@]5(C)CC(CCCNC(C)=O)(CCCNC(C)=O)[C@H](OC(C)=O)C(C)(C)[C@@H]5CC[C@]43C)[C@@H]12 in this test?
Ans: no (0)

Q: Which outcome was assigned to CN1C(=O)N(C)C2(c3ccccc3)N(CC(=O)Nc3ccccc3O)C(=O)NC12c1ccccc1 (stereo unspecified) in this test?
Ans: no (0)

Q: Which outcome was assigned to Nc1nc(N)c2c(n1)NC(c1cccc(Nc3ccnc4cc(C(F)(F)F)ccc34)c1)CC(c1ccc(F)cc1)=N2 (stereo unspecified) in this test?
Ans: no (0)

Q: Which outcome was assigned to COc1cc(/C=C(/c2ccccc2)[N+](=O)[O-])c(OC)c2c1OCO2 in this test?
Ans: yes (1)

Q: Which outcome was assigned to Nc1nc(CSc2n[nH]c(N)n2)nc(Nc2ccccc2)n1 in this test?
Ans: no (0)

Q: Which outcome was assigned to N#C/C(=C\c1ccccc1Cl)c1cc2ccccc2[nH]1 in this test?
Ans: no (0)

Q: Which outcome was assigned to CCN(C(=O)N1CCN(c2cc3c(cc2F)c(=O)c(C(=O)O)cn3C2CC2)CC1)c1nc(-c2ccccc2)cs1 in this test?
Ans: yes (1)

Q: Which outcome was assigned to CC1=CC=C(NC(=O)/C=C/c2ccccc2)CC1Nc1nccc(-c2cccnc2)n1 (stereo unspecified) in this test?
Ans: no (0)

Q: Which outcome was assigned to COc1ccc(C(=O)N/N=C/c2ccc(O)cc2O)cc1Nc1ccnc(C(F)(F)F)c1 in this test?
Ans: no (0)

Q: Which outcome was assigned to COc1ccc(-c2nc(Cl)c3c(C)nn(-c4ccc(F)cc4)c3n2)cc1 in this test?
Ans: no (0)

Q: Which outcome was assigned to COc1ccc(-c2ccc(-c3ccc(C(=N)N)cn3)s2)cc1Cl in this test?
Ans: yes (1)

Q: Which outcome was assigned to CN(C)C(=O)c1cc2cnc(Nc3ccc(-c4csc5c(=S)cc(N6CCOCC6)oc45)cc3)nc2n1C1CCCC1 in this test?
Ans: yes (1)

Q: Which outcome was assigned to CN(Cc1ccccc1)c1nc(Cl)c(C2CC(c3ccc4c(c3)OCO4)=NN2c2cc(Cl)cc(Cl)c2)s1 (stereo unspecified) in this test?
Ans: no (0)

Q: Which outcome was assigned to CS(=O)(=O)Nc1cc(-c2ccc3ncnc(Nc4ccc(F)c(Cl)c4)c3c2)cnc1Cl in this test?
Ans: yes (1)

Q: Which outcome was assigned to CCOC(=O)c1ccc(Nc2ncnc3c2cnn3-c2cccc(F)c2)cc1 in this test?
Ans: no (0)

Q: Which outcome was assigned to CCCc1cc(C(N)=S)ccn1 in this test?
Ans: no (0)
